Would you kindly list IC50 for each of these molecules?
system: Interleukin-23 receptor (Homo sapiens)
Sequence (Q5VWK5 whole entry): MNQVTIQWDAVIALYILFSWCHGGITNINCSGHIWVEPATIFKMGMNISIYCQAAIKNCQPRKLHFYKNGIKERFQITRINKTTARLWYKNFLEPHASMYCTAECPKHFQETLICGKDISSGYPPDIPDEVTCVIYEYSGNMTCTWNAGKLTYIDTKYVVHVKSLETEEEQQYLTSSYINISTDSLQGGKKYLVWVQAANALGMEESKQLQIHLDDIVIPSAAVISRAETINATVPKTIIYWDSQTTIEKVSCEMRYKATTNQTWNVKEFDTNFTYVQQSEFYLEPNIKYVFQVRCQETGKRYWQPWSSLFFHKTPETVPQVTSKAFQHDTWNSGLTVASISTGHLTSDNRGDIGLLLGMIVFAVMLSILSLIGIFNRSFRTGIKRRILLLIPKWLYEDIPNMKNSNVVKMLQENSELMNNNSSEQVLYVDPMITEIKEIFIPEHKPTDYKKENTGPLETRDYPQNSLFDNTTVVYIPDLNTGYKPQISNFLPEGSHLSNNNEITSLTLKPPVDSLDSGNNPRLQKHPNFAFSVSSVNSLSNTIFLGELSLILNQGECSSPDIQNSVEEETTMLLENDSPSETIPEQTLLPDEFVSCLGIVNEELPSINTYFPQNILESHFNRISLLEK
test details: Inhibition of interleukin-23 binding to human interleukin-23 receptor incubated for 2 hrs by competitive binding ELISA

Please provide the recorded IC50 for CC(=O)N[C@H](C(=O)N[C@@H](CCC(N)=O)C(=O)N[C@@H](Cc1ccccc1)C(=O)N[C@@H](CC(=O)O)C(=O)N[C@@H](CS)C(=O)N[C@@H](CCCNC(=N)N)C(=O)N[C@H](C(=O)N[C@@H](Cc1c[nH]c2ccccc12)C(=O)N[C@@H](CCC(=O)O)C(=O)N[C@@H](CS)C(=O)N[C@@H](Cc1ccc(O)cc1)C(=O)N[C@@H](Cc1c[nH]c2ccccc12)C(=O)N[C@@H](Cc1cnc[nH]1)C(=O)N[C@H](C(=O)N[C@@H](Cc1ccccc1)C(=O)NCC(N)=O)[C@@H](C)O)[C@@H](C)O)[C@@H](C)O , tested on Interleukin-23 receptor (Homo sapiens).
500 to 1000 nM

Please provide the recorded IC50 for COc1ccc(C[C@H](NC(=O)[C@@H](NC(=O)[C@H](CCC(N)=O)NC(=O)[C@H](Cc2c[nH]c3ccccc23)NC(=O)[C@@H](NC(=O)[C@H](CCC(N)=O)NC(=O)[C@@H](NC(C)=O)C(C)(C)S)[C@@H](C)O)C(C)(C)S)C(=O)N[C@@H](Cc2ccc3ccccc3c2)C(=O)N[C@@](C)(CCCCN)C(=O)N[C@@H](CCC(=O)O)C(=O)N[C@@H](CC(N)=O)C(=O)NCC(N)=O)cc1 , tested on Interleukin-23 receptor (Homo sapiens).
25 to 100 nM
